molecular target: Human immunodeficiency virus type 1 protease (Human immunodeficiency virus 1, UniProt Q72874)
// class assignment uses Ki with these ranges: lo = under 3 nM, mid = from 3 nM up to 8 nM, hi = 8 nM and over

Req: # classify by Ki band: COc1cccc(C[C@@H]2[C@H](O)[C@@H](O)[C@@H](Cc3cccc(OC)c3)N(Cc3ccc(CO)cc3)C(=O)N2Cc2ccc(CO)cc2)c1
Resp: lo

Req: # classify by Ki band: CC(C)C[C@@H]1[C@H](O)[C@@H](O)[C@@H](CC(C)C)N(CC2CC2)C(=O)N1CC1CC1
Resp: hi

Req: # classify by Ki band: Nc1ccc(C[C@@H]2[C@H](O)[C@@H](O)[C@@H](Cc3ccc(N)cc3)N(Cc3ccccc3)C(=O)N2Cc2ccccc2)cc1
Resp: hi

Req: # classify by Ki band: Nc1cccc(C[C@@H]2[C@H](O)[C@@H](O)[C@@H](Cc3cccc(N)c3)N(Cc3ccccc3)C(=O)N2Cc2ccccc2)c1
Resp: lo

Req: # classify by Ki band: CSCC[C@@H]1[C@H](O)[C@@H](O)[C@@H](CCSC)N(Cc2ccc(CO)cc2)C(=O)N1Cc1ccc(CO)cc1
Resp: hi

Req: # classify by Ki band: O=C1N(Cc2ccccc2)[C@H](Cc2ccc3c(c2)OCO3)[C@H](O)[C@@H](O)[C@@H](Cc2ccc3c(c2)OCO3)N1Cc1ccccc1
Resp: lo

Req: # classify by Ki band: O=C1N(Cc2ccc(CO)cc2)[C@H](Cc2ccccc2)[C@H](O)[C@@H](O)[C@@H](Cc2ccccc2)N1Cc1ccc(CO)cc1
Resp: lo

Req: # classify by Ki band: COc1cccc(C[C@@H]2[C@H](O)[C@@H](O)[C@@H](Cc3cccc(OC)c3)N(CC3CC3)C(=O)N2CC2CC2)c1
Resp: lo

Req: # classify by Ki band: CC(C)C[C@@H]1[C@H](O)[C@@H](O)[C@@H](CC(C)C)N(Cc2ccc(CO)cc2)C(=O)N1Cc1ccc(CO)cc1
Resp: hi

Req: # classify by Ki band: O=C1N(CC2CC2)[C@H](Cc2cccs2)[C@H](O)[C@@H](O)[C@@H](Cc2cccs2)N1CC1CC1
Resp: hi

Req: # classify by Ki band: CN(C)c1cccc(C[C@@H]2[C@H](O)[C@@H](O)[C@@H](Cc3cccc(N(C)C)c3)N(Cc3ccccc3)C(=O)N2Cc2ccccc2)c1
Resp: mid

Req: # classify by Ki band: O=C1N(CC2CC2)[C@H](Cc2ccccc2)[C@H](O)[C@@H](O)[C@@H](Cc2ccccc2)N1CC1CC1
Resp: lo

Req: # classify by Ki band: CSc1ccc(C[C@@H]2[C@H](O)[C@@H](O)[C@@H](Cc3ccc(SC)cc3)N(Cc3ccccc3)C(=O)N2Cc2ccccc2)cc1
Resp: mid

Req: # classify by Ki band: COc1cccc(C[C@@H]2[C@H](O)[C@@H](O)[C@@H](Cc3cccc(OC)c3)N(Cc3ccccc3)C(=O)N2Cc2ccccc2)c1
Resp: mid

Req: # classify by Ki band: O=C1N(CC2CC2)[C@H](Cc2ccc3ccccc3c2)[C@H](O)[C@@H](O)[C@@H](Cc2ccc3ccccc3c2)N1CC1CC1
Resp: mid

Req: # classify by Ki band: COc1ccc(C[C@@H]2[C@H](O)[C@@H](O)[C@@H](Cc3ccc(OC)cc3)N(CC3CC3)C(=O)N2CC2CC2)cc1
Resp: lo

Req: # classify by Ki band: COc1ccccc1C[C@@H]1[C@H](O)[C@@H](O)[C@@H](Cc2ccccc2OC)N(Cc2ccccc2)C(=O)N1Cc1ccccc1
Resp: hi
